A set of compounds tested on Poly [ADP-ribose] polymerase 1 (Homo sapiens, UniProt P09874), with measured log10 IC50:
Units before log transform: µM; reported quantity: IC50; transform: log10.

NC(=O)c1cccc2c1OCC2=O = 1.21
NC(=O)c1cccc2c1O/C(=C\c1ccc(OCCN3CCOCC3)cc1)C2=O = 0.32
COc1ccc(/C=C2\Oc3c(C(N)=O)cccc3C2=O)cc1 = 0.52
NC(=O)c1cccc2c1O/C(=C\c1ccc(O)cc1)C2=O = -0.09
NC(=O)c1cccc2c1O/C(=C\c1ccc(O)cc1O)C2=O = -0.12
NC(=O)c1cccc2c1O/C(=C\c1ccc(OCC(O)CN3CCOCC3)cc1)C2=O (centres undefined) = -0.75
NC(=O)c1cc(F)cc2c1OCC2 = 0.33

// switching to the query compound
-- ask Identify measured log10 IC50 associated with NC(=O)c1cccc2c1OCC2
-- reply 0.98

----------
A set of compounds tested on Poly [ADP-ribose] polymerase 1 (Homo sapiens), with measured IC50:

NC(=O)c1cccc2c1O/C(=C\c1ccccc1O)C2=O = > 10 µM
CC1Cc2cc(N)cc(C(N)=O)c2O1 (stereo unspecified) = > 25 µM
NC(=O)c1cc(Br)cc2c1OCC2 = > 25 µM
Cc1cc2c(c(C(N)=O)c1)OC(C)C2 (stereo unspecified) = > 25 µM
NC(=O)c1cc([N+](=O)[O-])cc2c1OCC2 = > 25 µM

-- ask Identify measured IC50 associated with NC(=O)c1cccc2c1O/C(=C\c1cccc(OCCN3CCOCC3)c1)C2=O
-- reply > 10 µM

-- ask Identify measured IC50 associated with NC(=O)c1cc(N)cc2c1OCC2
-- reply > 25 µM

----------
A set of compounds tested on Poly [ADP-ribose] polymerase 1 (Homo sapiens, UniProt P09874), with measured IC50:

NC(=O)c1cccc2c1O/C(=C\c1cc(O)ccc1O)C2=O = > 10 µM
NC(=O)c1cccc2c1O/C(=C\c1cccc(OCCN3CCCCC3)c1)C2=O = > 10 µM
CC1Cc2cc([N+](=O)[O-])cc(C(N)=O)c2O1 (centres undefined) = > 25 µM

// switching to the query compound
-- ask Identify measured IC50 associated with NC(=O)c1cccc2c1O/C(=C\c1cc(O)cc(O)c1)C2=O
-- reply > 10 µM

Origin of the recorded values: ChEMBL document CHEMBL3286176
